# Test system: rodent lifetime carcinogenesis bioassay, tumor incidence TD50
# test_details: carcinogenic potency in animals, long-term in vivo studies, CPDB compilation (AID 1745844)
# test_conditions: rat; strain Fischer 344; females; in feed; site: uterus; lesion: endometrial stromal polyp; dosed 104 weeks; study length 105 weeks

>  <chemical_structure>
COc1ccc(C)cc1N

>  <test_target>
rodent lifetime carcinogenesis bioassay, tumor incidence TD50

>  <TD50 (mg/kg/day)>
913

$$$$
>  <chemical_structure>
OCC(CO)(CBr)CBr

>  <test_target>
rodent lifetime carcinogenesis bioassay, tumor incidence TD50

>  <TD50 (mg/kg/day)>
904

$$$$

====

# Tested on: rodent lifetime carcinogenesis bioassay, tumor incidence TD50
# test_details: carcinogenic potency in animals, long-term in vivo studies, CPDB compilation (AID 1745844)
# test_conditions: rat; strain Fischer 344; females; in drinking water; site: tongue; lesion: several types; types named in the paper; dosed 31 weeks; study length 55 weeks

>  <molecule>
CC(=O)CNCC(O)C(O)N=O (stereo unspecified)

>  <TD50>
0.0555 mg/kg/day

$$$$

====

# Tested on: rodent lifetime carcinogenesis bioassay, tumor incidence TD50
# test_details: carcinogenic potency in animals, long-term in vivo studies, CPDB compilation (AID 1745844)
# test_conditions: mouse; strain C57BL; females; by gavage; site: liver; lesion: benign tumor; dosed 50 weeks; study length 72 weeks

>  <chemical_structure>
CN(C)N=O

>  <uom>
mg/kg/day

>  <TD50>
0.35

$$$$

====

# Test system: rodent lifetime carcinogenesis bioassay, tumor incidence TD50
# test_details: carcinogenic potency in animals, long-term in vivo studies, CPDB compilation (AID 1745844)
# test_conditions: rat; strain Fischer 344; females; by gavage; site: pituitary gland, anterior; lesion: adenoma, NOS + chromophobe adenoma + chromophobe carcinoma; dosed 100 weeks; study length 104 weeks
result_type: TD50 (mg/kg/day)

>  <chemical_structure>
CC(C)=CCl

>  <result_type>
TD50

>  <endpoint_value>
68

$$$$

====

# Test system: rodent lifetime carcinogenesis bioassay, tumor incidence TD50
# test_details: carcinogenic potency in animals, long-term in vivo studies, CPDB compilation (AID 1745844)
# test_conditions: rat; strain Fischer 344; females; in drinking water; site: liver; lesion: hepatocellular adenoma + hepatocellular carcinoma + neoplastic nodule; dosed 91 weeks; study length 93 weeks
result_type: TD50

>  <chemical_structure>
COc1cc(-c2ccc(N)c(OC)c2)ccc1N

>  <endpoint_value>
33.3 mg/kg/day

$$$$

====

# Tested on: rodent lifetime carcinogenesis bioassay, tumor incidence TD50
# test_details: carcinogenic potency in animals, long-term in vivo studies, CPDB compilation (AID 1745844)
# test_conditions: rat; strain Sprague-Dawley; females; in feed; site: kidney/pelvis; lesion: transitional-cell carcinoma; dosed 46 weeks; study length 66 weeks
Reported TD50 values for the following compounds.

>  <compound>
O=C1OC(CN2CCOCC2)CN1/N=C/c1ccc([N+](=O)[O-])o1 (centres undefined)

>  <TD50>
149 mg/kg/day

$$$$
>  <compound>
Nc1ncc([N+](=O)[O-])s1

>  <TD50>
157 mg/kg/day

$$$$
>  <compound>
CC(=O)NCc1nc(-c2ccc([N+](=O)[O-])o2)no1

>  <TD50>
59.6 mg/kg/day

$$$$
>  <compound>
Nc1nnc(-c2ccc([N+](=O)[O-])o2)o1

>  <TD50>
45.2 mg/kg/day

$$$$

====

# System: rodent lifetime carcinogenesis bioassay, tumor incidence TD50
# test_details: carcinogenic potency in animals, long-term in vivo studies, CPDB compilation (AID 1745844)
# test_conditions: rat; strain F344/DuCrj; males; in feed; site: small intestine; lesion: mucinous carcinoma; dosed 104 weeks; study length 104 weeks

>  <chemical_structure>
Nc1ccc2nc3ccccn3c2n1

>  <TD50>
281 mg/kg/day

$$$$

====

# System: rodent lifetime carcinogenesis bioassay, tumor incidence TD50
# test_details: carcinogenic potency in animals, long-term in vivo studies, CPDB compilation (AID 1745844)
# test_conditions: rat; strain F344/DuCrj; males; in drinking water; site: kidney; lesion: adenoma; dosed 39 weeks; study length 104 weeks
result_type: TD50 (mg/kg/day)

>  <chemical_structure>
[O-][Br+2]([O-])O

>  <result_type>
TD50

>  <endpoint_value>
5.57

$$$$

====

Reported TD50 values for the following compounds.
# System: rodent lifetime carcinogenesis bioassay, tumor incidence TD50
# test_details: carcinogenic potency in animals, long-term in vivo studies, CPDB compilation (AID 1745844)
# test_conditions: mouse; strain B6C3F1; males; in feed; site: liver; lesion: hepatocellular adenoma + hepatoblastoma + hepatocellular carcinoma; dosed 103 weeks; study length 104 weeks

>  <chemical_structure>
Nc1c(Br)cc(Br)c2c1C(=O)c1ccccc1C2=O

>  <TD50 [mg/kg/day]>
467

$$$$
>  <chemical_structure>
COc1ccccc1[N+](=O)[O-]

>  <TD50 [mg/kg/day]>
198

$$$$

====

# Tested on: rodent lifetime carcinogenesis bioassay, tumor incidence TD50
# test_details: carcinogenic potency in animals, long-term in vivo studies, CPDB compilation (AID 1745844)
# test_conditions: rat; strain Charles River CD (Sprague-Dawley); males; inhaled; site: liver; lesion: hepatocellular carcinoma; dosed 104 weeks; study length 104 weeks
Activity calls are given as the source filed them. No rule for the calls is given here.
Labels: active, inactive

>  <chemical_structure>
C=CN1CCCC1=O

>  <test_target>
rodent lifetime carcinogenesis bioassay, tumor incidence TD50

>  <class_name>
active

$$$$
>  <chemical_structure>
CN(C)C=O

>  <test_target>
rodent lifetime carcinogenesis bioassay, tumor incidence TD50

>  <class_name>
inactive

$$$$

====

# Test system: rodent lifetime carcinogenesis bioassay, tumor incidence TD50
# test_details: carcinogenic potency in animals, long-term in vivo studies, CPDB compilation (AID 1745844)
# test_conditions: mouse; strain SENCAR; females; by gavage; site: lung; lesion: several types; types named in the paper; dosed 30 weeks; study length 67 weeks
result_type: TD50

>  <chemical_structure>
O=NN1CCCCCC1

>  <test_target>
rodent lifetime carcinogenesis bioassay, tumor incidence TD50

>  <endpoint_value>
0.783 mg/kg/day

$$$$

====

# System: rodent lifetime carcinogenesis bioassay, tumor incidence TD50
# test_details: carcinogenic potency in animals, long-term in vivo studies, CPDB compilation (AID 1745844)
# test_conditions: rat; strain Sprague-Dawley Spartan; females; inhaled; site: mammary gland; lesion: adenocarcinoma; dosed 78 weeks; study length 104 weeks
Activity calls are given as the source filed them. No rule for the calls is given here.

>  <chemical_structure>
C=C(Cl)Cl

>  <test_target>
rodent lifetime carcinogenesis bioassay, tumor incidence TD50

>  <TD50>
49.8 mg/kg/day (inactive)

$$$$

====

# Tested on: rodent lifetime carcinogenesis bioassay, tumor incidence TD50
# test_details: carcinogenic potency in animals, long-term in vivo studies, CPDB compilation (AID 1745844)
# test_conditions: mouse; strain Charles River CD1; males; in drinking water; site: lung; lesion: alveolar/bronchiolar carcinoma; dosed 52 weeks; study length 52 weeks

>  <chemical_structure>
CN(C)N

>  <uom>
mg/kg/day

>  <TD50>
67.4

$$$$

====

# Tested on: rodent lifetime carcinogenesis bioassay, tumor incidence TD50
# test_details: carcinogenic potency in animals, long-term in vivo studies, CPDB compilation (AID 1745844)
# test_conditions: hamster; strain Syrian Golden; males; by gavage; site: pancreatic duct; lesion: adenoma; dosed 66 weeks; study length 87 weeks

>  <molecule>
CC1CN(N=O)CC(C)O1 (stereo unspecified)

>  <test_target>
rodent lifetime carcinogenesis bioassay, tumor incidence TD50

>  <TD50, mg/kg/day>
21.2

$$$$

====

# System: rodent lifetime carcinogenesis bioassay, tumor incidence TD50
# test_details: carcinogenic potency in animals, long-term in vivo studies, CPDB compilation (AID 1745844)
# test_conditions: rat; strain Fischer 344; females; in drinking water; site: spinal cord; lesion: astrocytoma; dosed 104 weeks; study length 104 weeks
result_type: TD50 (mg/kg/day)

>  <chemical_structure>
C=CC(N)=O

>  <endpoint_value>
40.3

$$$$

====

# Tested on: rodent lifetime carcinogenesis bioassay, tumor incidence TD50
# test_details: carcinogenic potency in animals, long-term in vivo studies, CPDB compilation (AID 1745844)
# test_conditions: mouse; strain B6C3F1; females; i.p.; site: all sites; lesion: leukemia + lymphoma; dosed 52 weeks; study length 80 weeks

>  <chemical_structure>
CNNCc1ccc(C(=O)NC(C)C)cc1

>  <TD50>
0.69 mg/kg/day

$$$$

====

# Tested on: rodent lifetime carcinogenesis bioassay, tumor incidence TD50
# test_details: carcinogenic potency in animals, long-term in vivo studies, CPDB compilation (AID 1745844)
# test_conditions: rat; strain Fischer 344; females; in drinking water; site: clitoral gland; lesion: adenoma + adenoma, bilateral + carcinoma + carcinoma, bilateral; dosed 91 weeks; study length 93 weeks
result_type: TD50

>  <chemical_structure>
COc1cc(-c2ccc(N)c(OC)c2)ccc1N

>  <endpoint_value>
1.6 mg/kg/day

$$$$
